# measurement.target: T1, human B7-H4 (purified monomeric recombinant human protein, ACRO biosystems) (human, UniProt Q7Z7D3 29-258, limits assumed, chemically biotinylated (EZ-Link NHS-LC-Biotin) in the yeast display and competition experiments; non-biotinylated in SPR)
# T1 construct: Bought recombinant monomeric protein; also called B7x; B7S1
# T1 sequence: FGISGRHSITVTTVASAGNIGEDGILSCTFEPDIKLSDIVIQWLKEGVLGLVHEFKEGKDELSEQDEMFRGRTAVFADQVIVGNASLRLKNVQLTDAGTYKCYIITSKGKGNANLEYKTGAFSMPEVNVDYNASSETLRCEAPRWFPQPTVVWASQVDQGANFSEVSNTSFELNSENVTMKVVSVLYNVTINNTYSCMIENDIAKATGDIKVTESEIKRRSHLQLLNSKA
# method.notes: SPR (Carterra LSA); scFv-Fc captured on anti-human IgG Fc, antigen injected
measured.parameter: KD fold-improvement (fold over parental)

1) A10 scFv-Fc (scFv, V domains shown, Tested as scFv-Fc fusion (human IgG1 Fc, vector pDNL9) in crude yeast supernatant; Combo 2 library) VH: EVQLVESGGGVVQPGRSLRLSCAASGFTFSSRSMNWVRQAPGKGLEWVSAISGTGYTTYYADSVKGRFTISRDNSKNTLYLQMNSLRAEDTAVYYCARKRWYGMDVWGQGTTVTVSS VL: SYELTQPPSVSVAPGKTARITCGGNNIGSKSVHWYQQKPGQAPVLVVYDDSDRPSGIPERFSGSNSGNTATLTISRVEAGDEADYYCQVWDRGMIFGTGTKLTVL	72
2) B08 scFv-Fc (scFv, V domains shown, Tested as scFv-Fc fusion (human IgG1 Fc, vector pDNL9) in crude yeast supernatant; Combo 2 library) VH: EVQLVESGGGVVQPGRSLRLSCAASGFTFSDRAMNWVRQAPGKGLEWVSAISASGASRYYADSVKGRFTISRDNSKNTLYLQMNSLRAEDTAVYYCARKRWYGMDVWGQGTTVTVSS VL: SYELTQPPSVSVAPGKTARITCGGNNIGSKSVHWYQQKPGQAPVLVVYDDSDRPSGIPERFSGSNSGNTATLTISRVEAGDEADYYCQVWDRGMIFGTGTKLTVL	64
3) Parental (H6.1) scFv-Fc (scFv, V domains shown, Expressed with the 24 clones as scFv-Fc fusion (human IgG1 Fc) in yeast for SPR; also called parental antibody; parental molecule) VH: EVQLVESGGGVVQPGRSLRLSCAASGFTFSSYSMNWVRQAPGKGLEWVSAISGSGGSTYYADSVKGRFTISRDNSKNTLYLQMNSLRAEDTAVYYCARKRWYGMDVWGQGTTVTVSS VL: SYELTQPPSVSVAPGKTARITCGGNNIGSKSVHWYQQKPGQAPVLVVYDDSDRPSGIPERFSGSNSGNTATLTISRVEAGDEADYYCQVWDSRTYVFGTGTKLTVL	1
4) B09 scFv-Fc (scFv, V domains shown, Tested as scFv-Fc fusion (human IgG1 Fc, vector pDNL9) in crude yeast supernatant; Combo 2 library) VH: EVQLVESGGGVVQPGRSLRLSCAASGFTYSSRAMNWVRQAPGKGLEWVSAISSSGTTTYYADSVKGRFTISRDNSKNTLYLQMNSLRAEDTAVYYCARKRWYGMDVWGQGTTVTVSS VL: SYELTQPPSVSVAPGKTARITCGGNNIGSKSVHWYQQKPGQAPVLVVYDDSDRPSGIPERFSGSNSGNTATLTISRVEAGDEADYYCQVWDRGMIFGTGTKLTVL	63
